test.system: UniProt P07333
Sequence (P07333 20-972): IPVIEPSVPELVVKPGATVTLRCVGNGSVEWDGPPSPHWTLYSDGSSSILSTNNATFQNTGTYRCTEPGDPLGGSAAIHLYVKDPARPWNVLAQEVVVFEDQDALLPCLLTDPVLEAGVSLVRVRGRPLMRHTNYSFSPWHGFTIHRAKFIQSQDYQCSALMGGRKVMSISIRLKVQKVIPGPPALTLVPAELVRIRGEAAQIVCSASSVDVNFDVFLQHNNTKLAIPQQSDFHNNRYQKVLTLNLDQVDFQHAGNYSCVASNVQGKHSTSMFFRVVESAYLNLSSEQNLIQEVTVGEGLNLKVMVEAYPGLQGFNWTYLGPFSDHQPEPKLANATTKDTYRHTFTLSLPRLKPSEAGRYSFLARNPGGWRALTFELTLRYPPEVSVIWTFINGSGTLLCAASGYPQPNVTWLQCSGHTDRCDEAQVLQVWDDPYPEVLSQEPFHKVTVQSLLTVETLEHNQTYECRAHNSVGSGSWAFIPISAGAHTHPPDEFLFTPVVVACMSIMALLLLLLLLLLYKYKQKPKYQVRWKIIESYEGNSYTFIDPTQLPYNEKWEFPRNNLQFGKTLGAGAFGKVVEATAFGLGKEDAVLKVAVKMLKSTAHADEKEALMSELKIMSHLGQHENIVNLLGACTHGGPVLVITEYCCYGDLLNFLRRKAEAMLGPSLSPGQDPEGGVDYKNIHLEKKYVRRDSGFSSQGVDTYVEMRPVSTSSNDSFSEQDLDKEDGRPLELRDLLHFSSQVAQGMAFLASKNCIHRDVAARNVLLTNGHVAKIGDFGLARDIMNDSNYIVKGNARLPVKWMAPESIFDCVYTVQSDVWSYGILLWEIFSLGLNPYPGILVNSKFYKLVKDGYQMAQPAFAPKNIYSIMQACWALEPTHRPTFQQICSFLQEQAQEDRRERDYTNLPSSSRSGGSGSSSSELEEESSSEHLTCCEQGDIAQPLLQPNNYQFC
method.summary: Peptide (non-phosphorylated) assay, fluorescence polarization competition immunoassay
Assay type: biochemical
reported.conditions: 0.7 nM CSF-1R, 308 μM SYEGNSYTFIDPTQ peptide, 1 mM ATP, 80 min; mean of at least three determinations; read-out: c-fms Peptide IC50
Field: pIC50. Provide a value for each of the molecules that follow.
The value called pIC50 is obtained by taking minus log10 of the concentration in mol/L.

Input line: Quick check: pIC50 of "CCc1ccc(-n2cc(C(=O)NOC)c(=O)c3cnc(Nc4ccc(C5CCN(CC)CC5)cc4)nc32)cc1" ?
Output line: 9.40

Input line: Now the molecule CONC(=O)c1cn(-c2ccc3c(c2)CCC3)c2nc(Nc3ccc(CCNC4CC5CCC4C5)cc3)ncc2c1=O (stereo not drawn)
Output line: 9.06

Input line: Do the same for "COCCNC(=O)c1cn(-c2ccc3c(c2)CCC3)c2nc(Nc3ccc(CCN4CCCC4)cc3)ncc2c1=O" please
Output line: 7.92

Input line: Also "CCc1ccc(-n2cc(C(=O)NOC)c(=O)c3cnc(Nc4ccc(OC5CCN(CC)CC5)cc4)nc32)cc1" , if possible.
Output line: 9.30

Input line: How about "CONC(=O)c1cn(-c2ccc3c(c2)CCC3)c2nc(Nc3cccc(N4CCNCC4)c3)ncc2c1=O" ?
Output line: 9.25

Input line: Next molecule: "CONC(=O)c1cn(-c2ccc3c(c2)CCC3)c2nc(Nc3ccc(CCN4CCCC4=O)cc3)ncc2c1=O"
Output line: 8.17

Input line: Ok, now "CCN1CCC(c2ccc(Nc3ncc4c(=O)c(C(=O)NOC)cn(C5CCC(C)(C)CC5)c4n3)cc2)CC1"
Output line: 9.40

Input line: Same again, this time with "CONC(=O)c1cn(-c2ccc3c(c2)CCC3)c2nc(Nc3ccc(CCc4ncn[nH]4)cc3)ncc2c1=O"
Output line: 8.38

Input line: Okay, and "CONC(=O)c1cn(-c2ccc3c(c2)CCC3)c2nc(Nc3cccc(N4CCN(S(=O)(=O)C(F)(F)F)CC4)c3)ncc2c1=O" ?
Output line: 7.17

Input line: Next molecule: "CONC(=O)c1cn(-c2ccc3c(c2)CCC3)c2nc(Nc3cccc(N(C)C)c3)ncc2c1=O"
Output line: 8.96

Input line: Now consider "CCc1ccc(-n2cc(C(=O)NOC)c(=O)c3cnc(Nc4ccc(CCN5CCC5)cc4)nc32)cc1" and answer again.
Output line: 9.21

Input line: Then what about the molecule "CCc1ccc(-n2cc(C(=O)NOC3CCCC3)c(=O)c3cnc(Nc4ccc(CCN5CCN(C)CC5)cc4)nc32)cc1" ?
Output line: 8.31

Input line: How about CONC(=O)c1cn(-c2ccc3c(c2)CCC3)c2nc(Nc3ccc(OC4CN5CCC4CC5)cc3)ncc2c1=O (stereo not drawn) ?
Output line: 9.42

Input line: Now the molecule CONC(=O)c1cn(-c2ccc3c(c2)CCC3)c2nc(Nc3cccc(N4CC(C)NC(C)C4)c3)ncc2c1=O (stereo not drawn)
Output line: 9.02

Input line: // repeat for "CONC(=O)c1cn(-c2ccc(C)c(C)c2)c2nc(Nc3ccc(CCN4CCCC4=O)cc3)ncc2c1=O" and report
Output line: 8.92

Input line: And "CONC(=O)c1cn(-c2ccc3ccccc3c2)c2nc(Nc3ccc(C4CCN(C)CC4)cc3)ncc2c1=O" ?
Output line: 9.00

Input line: Try "CCc1ccc(-n2cc(C(=O)NOC)c(=O)c3cnc(Nc4ccc5c(ccn5C)c4)nc32)cc1" next.
Output line: 9.05

Input line: # repeat for "CCc1ccc(-n2cc(C(=O)NOC)c(=O)c3cnc(Nc4cccc(OC5CCN(CC)CC5)c4)nc32)cc1"
Output line: 9.10

Input line: Same lookup for "CONC(=O)c1cn(-c2ccc3c(c2)CCC3)c2nc(Nc3ccc(CCO)cc3)ncc2c1=O" , please.
Output line: 9.06

Input line: Please do the same for "C#Cc1ccc(-n2cc(C(=O)NOC)c(=O)c3cnc(Nc4ccc(CCN5CCN(C)CC5)cc4)nc32)cc1" as well.
Output line: 8.59

Input line: Then what about the molecule "NCCNC(=O)c1cn(C2CCCC2)c2nc(Nc3ccc(CCN4CCCC4)cc3)ncc2c1=O" ?
Output line: 6.96

Input line: Can you handle CCN1CCCC(Oc2cccc(Nc3ncc4c(=O)c(C(=O)NOC)cn(-c5ccc6c(c5)CCC6)c4n3)c2)C1 (stereo not drawn) next?
Output line: 9.03

Input line: Next up: "CCc1ccc(-n2cc(C(=O)NOC)c(=O)c3cnc(Nc4ccc(C5CCN(CC(F)(F)F)CC5)cc4)nc32)cc1"
Output line: 8.39

Input line: Param item: "CONC(=O)c1cn(-c2ccc(OC(F)(F)F)cc2)c2nc(Nc3ccc(C4CCN(S(N)(=O)=O)CC4)cc3)ncc2c1=O"
Output line: 8.18

Input line: Next: CCONC(=O)c1cn(C2CCCCC2)c2nc(Nc3ccc(N4CC(C)NC(C)C4)cc3)ncc2c1=O (stereo not drawn)
Output line: 8.68

Input line: Cool, now "CCc1ccc(-n2cc(C(=O)NOC)c(=O)c3cnc(Nc4ccc(CCN5CCN(C)CC5)cc4)nc32)cc1"
Output line: 8.96

Input line: Try this molecule too: "CONC(=O)c1cn(-c2ccc3c(c2)CCC3)c2nc(Nc3ccc(C[C@H]4COC(=O)N4)cc3)ncc2c1=O"
Output line: 9.00
